Assayed target: human A2a adenosine receptor (Homo sapiens (Human), UniProt P29274)
Sequence (P29274 whole entry): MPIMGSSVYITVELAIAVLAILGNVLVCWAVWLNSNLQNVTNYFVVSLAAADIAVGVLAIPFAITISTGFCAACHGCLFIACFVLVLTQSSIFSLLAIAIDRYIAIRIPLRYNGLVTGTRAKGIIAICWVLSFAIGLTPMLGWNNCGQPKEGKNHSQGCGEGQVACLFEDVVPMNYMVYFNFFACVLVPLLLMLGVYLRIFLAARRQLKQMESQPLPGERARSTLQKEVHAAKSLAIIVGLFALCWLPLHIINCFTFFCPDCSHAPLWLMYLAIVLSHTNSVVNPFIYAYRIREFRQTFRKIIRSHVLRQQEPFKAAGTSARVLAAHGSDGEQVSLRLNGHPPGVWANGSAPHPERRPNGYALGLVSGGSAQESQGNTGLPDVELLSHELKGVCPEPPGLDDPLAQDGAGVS
Protocol description: A2a receptor affinity radioligand binding assay ([3H] SCH58261, membranes from HEK293 or CHO cells)
Experimental context: unstarred values: radioligand binding
For each of the compounds below, state its pIC50.
Answers are plain numbers, as −log10 of the molar value.

CC[C@@H]1CC[C@H](c2nc3c4cccc(OC)c4nc(N)n3n2)CN1c1cnn(CC(C)(C)O)c1 (single isomer, unassigned) [Example 216D]	8.62
COc1cccc2c1nc(N)n1nc(C3CN(c4cnn(CC(C)(C)O)c4)CC(F)(F)C3)nc21 (single isomer, unassigned) [Example 156B]	8.66
COc1cccc2c1nc(N)n1nc([C@@H]3CCCN(c4cnn(C5CC6(COC6)C5)c4)C3)nc21	7.29
COc1ccc2c(c1)nc(N)n1nc([C@@H]3CCCN(c4cnn(CC5(CF)COC5)c4)C3)nc21	6.80
COc1cccc2c1nc(N)n1nc([C@@H]3CCCN(c4cnn(CC5(O)CCCCC5)c4)C3)nc21	8.92
COc1cccc2c1nc(N)n1nc([C@H]3CC[C@H](C)N(c4cnn(CC5(O)CCC5)c4)C3)nc21 [Example 144B]	8.51

# next compound below
Given COc1cccc2c1nc(N)n1nc([C@@H]3CCCN(c4cnn(CC(C)(C)N)c4)C3)nc21 , state its recorded pIC50.
8.51

----------
Assayed target: human A2a adenosine receptor (Homo sapiens (Human))
Protocol description: A2a receptor affinity radioligand binding assay ([3H] SCH58261, membranes from HEK293 or CHO cells)
Experimental context: unstarred values: radioligand binding
For each of the molecules below, state its IC50.
One number for each entry, in nM.

Value sought for every listed molecule: IC50.
1. COc1cccc2c1nc(N)n1nc([C@@H]3CCCN(c4cnn5c4CCC5)C3)nc21
2. C[C@H]1CC[C@@H](c2nc3c4ccc(C5CCC5)cc4nc(N)n3n2)CN1c1cnn(CC(C)(C)O)c1
3. COc1cccc2c1nc(N)n1nc([C@@H]3CCCN(c4cnc(OC(F)F)c(C)c4)C3)nc21
4. COc1cccc2c1nc(N)n1nc([C@@H]3CCCN(c4cnn(C5CCOC5)c4)C3)nc21 (single isomer, unassigned) [Example 57B]

0.9
28.7
0.7
0.3

----------
Assayed target: UniProt P29275
Sequence (P29275 whole entry): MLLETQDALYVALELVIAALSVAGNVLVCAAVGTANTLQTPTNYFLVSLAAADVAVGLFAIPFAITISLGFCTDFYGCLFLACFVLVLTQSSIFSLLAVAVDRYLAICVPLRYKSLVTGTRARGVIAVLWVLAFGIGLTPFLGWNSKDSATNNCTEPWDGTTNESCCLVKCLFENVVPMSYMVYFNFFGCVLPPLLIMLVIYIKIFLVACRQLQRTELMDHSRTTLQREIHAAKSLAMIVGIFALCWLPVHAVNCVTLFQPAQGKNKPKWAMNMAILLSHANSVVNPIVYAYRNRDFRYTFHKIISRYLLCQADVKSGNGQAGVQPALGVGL
Protocol description: A2b radioligand filtration binding assay (tritiated proprietary A2b antagonist, HEK293 membranes)
Experimental context: unstarred values: radioligand binding
pIC50: −log10 of the molar value.
Decision: pIC50 compared against 7; not below it gives yes, below it gives no.

See these solved cases before continuing.
COc1cccc2c1nc(N)n1nc([C@@H]3CCCN(c4cnn([C@H]5CCCC[C@H]5O)c4)C3)nc21 [Example 24]	yes
COc1ccc2c(c1)nc(N)n1nc([C@@H]3C[C@@H](C)CN(c4cnn(CC(C)(C)O)c4)C3)nc21 [Example 195B]	no
CCn1cc(N2C[C@@H](c3nc4c5cccc(OC)c5nc(N)n4n3)CC[C@@H]2C)cn1 [Example 140C]	yes

# check: pIC50 of COc1ccc2c(c1)nc(N)n1nc([C@@H]3CCCN(c4cn([C@H](C)C(C)(C)O)nc4C)C3)nc21 [Example 186A] is greater than or equal to 7
no

----------
For each of the compounds below, state its pIC50.
Assayed target: human A2a adenosine receptor (Homo sapiens (Human), UniProt P29274)
Protocol description: A2a receptor affinity radioligand binding assay ([3H] SCH58261, membranes from HEK293 or CHO cells)
Experimental context: unstarred values: radioligand binding
Numbers only, as −log10 of the molar value.

Value sought for every listed compound: pIC50.
1. CCn1cc(N2C[C@H](c3nc4c5cccc(OC)c5nc(N)n4n3)CC(F)(F)C2)cn1 [Example 153B]
2. COc1ccc2c(nc(N)n3nc(C4CCCN(c5cnn(C)c5)C4)nc23)c1F (single isomer, unassigned)
3. COc1ccc2c(c1)nc(N)n1nc([C@H]3CC[C@@H](C)N(c4cnn([C@@H](C)C(C)(C)O)c4)C3)nc21 [Example 212A]
4. COc1cccc2c1nc(N)n1nc([C@@H]3CCCN(c4cnn([C@H]5CC[C@H](O)C5)c4)C3)nc21
5. COc1cccc2c1nc(N)n1nc([C@@H]3CCCN(c4ncc(F)cn4)C3)nc21
6. COc1cccc2c1nc(N)n1nc([C@@H]3CCCN(c4cnn(C5CCOCC5)c4C(F)F)C3)nc21
7. COc1cccc2c1nc(N)n1nc([C@@H]3CCCN(c4cnn([C@H]5C[C@@](C)(O)C5)c4)C3)nc21
8. COc1cccc2c1nc(N)n1nc([C@@H]3CCCN(c4ccc(C(F)(F)F)nc4)C3)nc21

[9.00, 7.74, 6.66, 8.89, 8.66, 9.70, 9.15, 8.46]

----------
Assayed target: UniProt P29275
Protocol description: A2b radioligand filtration binding assay (tritiated proprietary A2b antagonist, HEK293 membranes)
Experimental context: unstarred values: radioligand binding
For each of the compounds below, state its IC50.
Numbers only, in nM.

COc1cccc2c1nc(N)n1nc([C@@H]3CCCN(c4cnccn4)C3)nc21 [Example 102]	151
COc1cccc2c1nc(N)n1nc([C@@H]3CCCN(c4cnn(C(C)C(C)(C)O)c4)C3)nc21 (single isomer, unassigned) [Example 61B]	84
COc1cccc2c1nc(N)n1nc(C3CCC[C@](O)(c4cnn(C)c4)C3)nc21 (single isomer, unassigned) [Example 134A]	7750

Value sought for every listed compound: IC50.
1. COc1cccc2c1nc(N)n1nc([C@@H]3CCCN(c4ccc(=O)n(C)n4)C3)nc21 [Example 98]
2. C[C@H]1CC[C@@H](c2nc3c4ccc(C5CC5)cc4nc(N)n3n2)CN1c1cnn(CC(C)(C)O)c1 (single isomer, unassigned) [Example 205]
3. COc1ccc2c(c1)nc(N)n1nc([C@H]3C[C@@H](C)CN(c4cnn(CC(C)(C)O)c4)C3)nc21 [Example 195A]
4. CCNC(=O)C(C)(C)n1cc(N2CCC[C@@H](c3nc4c5cccc(OC)c5nc(N)n4n3)C2)cn1 [Example 36]
5. Cn1cc(N2CCCC(c3nc4c5ccc(C(F)(F)F)cc5nc(N)n4n3)C2)cn1 (single isomer, unassigned) [Example 174]
6. COc1ccc2c(c1)nc(N)n1nc([C@@H]3CCCN(c4cnn(CC(C)(C)O)c4)C3)nc21 [Example 179]
7. C[C@H]1CC[C@@H](c2nc3c4ccc(C5CCC5)cc4nc(N)n3n2)CN1c1cnn(CC(C)(C)O)c1 [Example 209]

691
5.5
5810
1.7
480
103
328

Value sought for every listed compound: IC50.
1. COc1cccc2c1nc(N)n1nc([C@@H]3CCCN(c4cnn(C5CCCC5OC)c4)C3)nc21 (some centres unmarked) [Example 56]
2. CCn1cc(N2C[C@@H](c3nc4c5cccc(OC)c5nc(N)n4n3)CC[C@H]2C)cn1 (single isomer, unassigned) [Example 140A]
3. COc1cccc2c1nc(N)n1nc([C@@H]3CCCN(c4cnn(C5CCCC5O)c4)C3)nc21 (single isomer, unassigned) [Example 58B]

[175, 5510, 34.9]

Given COc1cccc2c1nc(N)n1nc([C@@H]3CCCN(c4cn(CC(F)(F)F)nn4)C3)nc21 [Example 73] , state its recorded IC50.
1.9

----------
Assayed target: UniProt:P29274
Protocol description: A2a receptor affinity radioligand binding assay ([3H] SCH58261, membranes from HEK293 or CHO cells)
Experimental context: unstarred values: radioligand binding
Assay endpoint: pIC50
Answers are plain numbers, as −log10 of the molar value.

A selection of reference data follows.
COc1ccc2c(c1)nc(N)n1nc([C@@H]3C[C@H](C)CN(c4cnn(C(C)(C)CO)c4)C3)nc21 (single isomer, unassigned) [Example 222A]	8.88
COc1cccc2c1nc(N)n1nc([C@@H]3CCCN(c4ccc(F)cn4)C3)nc21	8.92
COc1cccc2c1nc(N)n1nc(C3CN(c4cnn(CC(F)(F)F)c4)CC(F)(F)C3)nc21 (single isomer, unassigned) [Example 155B]	9.15
COc1cccc2c1nc(N)n1nc([C@@H]3CCCN(c4cncc(C)n4)C3)nc21	8.92
CCn1cc(N2C[C@@H](c3nc4c5cccc(OC)c5nc(N)n4n3)CC[C@@H]2C)cn1 [Example 140C]	9.22

Value sought for every listed compound: pIC50.
1. COc1cccc2c1nc(N)n1nc([C@@H]3CCCN(c4cnn(CC5(O)CCC5)c4C)C3)nc21
2. COc1ccc2c(c1)nc(N)n1nc([C@@H]3CC[C@H](C)N(c4cnn([C@H](C)C(C)(C)O)c4)C3)nc21 [Example 211B]
3. COc1cccc2c1nc(N)n1nc([C@@H]3CCCN(c4cc(C(F)(F)F)nn4C)C3)nc21
4. Nc1nc2c(Cl)cccc2c2nc(C3CCCN(c4cnn(C5CC5)c4)C3)nn12 (racemic)
5. COc1ccc2c(c1)nc(N)n1nc([C@@H]3CCCN(c4cnn([C@@H](C)[C@H](C)O)c4)C3)nc21 [Example 220A]

1. 8.80
2. 9.22
3. 9.10
4. 8.92
5. 8.99

Given COc1ccc2c(c1)nc(N)n1nc([C@@H]3CCCN(c4cnn([C@H](C)[C@H](C)O)c4)C3)nc21 [Example 221B] , state its recorded pIC50.
8.82
